target of assay: Ferredoxin:NADP^+ oxidoreductase (PfFNR) (Plasmodium falciparum, UniProt C6KT68)
Construct: gene FNR; recombinant PfFNR
Sequence (C6KT68 56-371): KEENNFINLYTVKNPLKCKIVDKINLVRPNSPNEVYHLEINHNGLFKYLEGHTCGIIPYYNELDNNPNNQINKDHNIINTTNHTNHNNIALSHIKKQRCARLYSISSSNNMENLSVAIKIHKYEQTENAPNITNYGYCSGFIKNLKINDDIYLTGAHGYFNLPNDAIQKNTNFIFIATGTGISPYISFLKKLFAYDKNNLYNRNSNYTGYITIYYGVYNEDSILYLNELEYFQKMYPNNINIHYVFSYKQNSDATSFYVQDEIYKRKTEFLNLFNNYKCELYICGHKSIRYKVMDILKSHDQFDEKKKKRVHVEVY
test protocol: steady-state product inhibition of juglone reductase reaction
Format: biochemical

{"columns": ["substance smiles", "target of assay", "unit text", "Ki"],
 "data": [
  ["NC(=O)c1ccc[n+]([C@@H]2O[C@H](COP(=O)([O-])OP(=O)(O)OC[C@H]3O[C@@H](n4cnc5c(N)ncnc54)[C@H](OP(=O)(O)O)[C@@H]3O)[C@@H](O)[C@H]2O)c1", "Ferredoxin:NADP^+ oxidoreductase (PfFNR) (Plasmodium falciparum, UniProt C6KT68)", "mM", 1.42]
]}
